Test: physchem
Settings: phosphate buffered saline, pH 7.4
Description: Solubility of the compound in phosphate buffered saline at pH 7.4 by UV spectrophotometry
EXPERIMENTAL_ENDPOINT: solubility (µg/mL)

Nc1nc(N)c2cc(NCc3ccc(O)cc3)ccc2n1 380

[I] COc1ccc(CNc2ccc3nc(N)nc(N)c3c2)cc1
[II] Nc1nc(N)c2cc(NCCn3c(C(F)(F)F)nc4cc(Cl)c(Cl)cc43)ccc2n1
// compare: I vs II , metric solubility, want the smaller Give the label under which the chosen entry appears.
I
(I: 250 µg/mL, II: 510 µg/mL)

====

Molecular target: Bifunctional dihydrofolate reductase-thymidylate synthase (Leishmania major, UniProt P07382)
Sequence (P07382 whole entry): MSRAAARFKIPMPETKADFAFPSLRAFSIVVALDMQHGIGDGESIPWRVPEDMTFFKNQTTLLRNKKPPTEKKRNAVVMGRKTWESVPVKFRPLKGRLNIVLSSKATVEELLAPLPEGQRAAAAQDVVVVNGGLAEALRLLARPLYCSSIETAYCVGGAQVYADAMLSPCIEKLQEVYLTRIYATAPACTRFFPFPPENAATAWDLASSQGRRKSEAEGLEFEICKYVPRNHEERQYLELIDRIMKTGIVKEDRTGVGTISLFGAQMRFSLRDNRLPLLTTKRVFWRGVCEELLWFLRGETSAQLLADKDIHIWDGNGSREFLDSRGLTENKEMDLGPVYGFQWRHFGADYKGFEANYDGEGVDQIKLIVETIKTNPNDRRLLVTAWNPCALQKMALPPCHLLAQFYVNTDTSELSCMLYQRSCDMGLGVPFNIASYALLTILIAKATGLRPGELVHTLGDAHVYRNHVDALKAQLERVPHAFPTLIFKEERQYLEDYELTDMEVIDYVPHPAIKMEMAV
Assay: Binding affinity to Leishmania major DHFR
EXPERIMENTAL_ENDPOINT: Kd (nM)

MOLECULE	UNIT_ABBREVIATION	Kd
Nc1nc(N)c2cc(NCc3ccc(O)cc3)ccc2n1	nM	1020

[a] COc1ccc(CNc2ccc3nc(N)nc(N)c3c2)cc1
[b] Nc1nc(N)c2cc(NCCn3c(C(F)(F)F)nc4cc(Cl)c(Cl)cc43)ccc2n1
[c] Nc1nc(N)c2cc(NCc3ccc([N+](=O)[O-])cc3)ccc2n1
[d] Nc1ccc2nc(N)nc(N)c2c1 [QUINAZOLINE-2,4,6-TRIAMINE]
[e] Nc1nc(N)c2cc([N+](=O)[O-])ccc2n1
Order the records, beginning with the lowest Kd and ending with the highest. Present the labels in the sequence the task asks for.
c, b, a, e, d
(c: 241 nM, b: 752 nM, a: 1580 nM, e: 15800 nM, d: 84000 nM)

====

Assay: Retention time of the compound
Assay type: physicochemical
EXPERIMENTAL_ENDPOINT: Retention_time (min)

Nc1nc(N)c2cc(NCCn3c(C(F)(F)F)nc4cc(Cl)c(Cl)cc43)ccc2n1 3.188
Nc1nc(N)c2cc(NCc3ccc(O)cc3)ccc2n1 3.081
Nc1nc(N)c2cc(NCc3ccc([N+](=O)[O-])cc3)ccc2n1 3.841
COc1ccc(CNc2ccc3nc(N)nc(N)c3c2)cc1 3.081

====

Assay: in vitro
Conditions: mouse, L929 cells
Description: Cytotoxicity against mouse L929 cells assessed as metabolic activity at 100 uM after 48 hrs by Alamar Blue assay relative to untreated control
EXPERIMENTAL_ENDPOINT: viability at 48 h, 100 µM (%)
Quick reminder: number only, in %, skip the unit.

Give the measured viability at 48 h, 100 µM of CC1CS(=O)(=O)CCN1/N=C/c1ccc([N+](=O)[O-])o1 (stereo unspecified) .
42
